Assay: Phase I study, pharmacokinetic parameters after oral single dose and daily dose for 7 days
Format: in vivo, human
Details: human, in vivo; single dose 20 mg, oral; read-out: Tmax time required to attain maximum concentration
Experimental readout: Tmax (h)
The figure you give is taken to be in h; do not add the unit.

Reported Tmax ( COc1ccc2[nH]c([S+]([O-])Cc3ncc(C)c(OC)c3C)nc2n1 (stereo not shown) [tenatoprazole] ) = 4

* * *

Experiment: Phase I study, pharmacokinetic parameters after oral single dose and daily dose for 7 days
Type: in vivo, human
Conditions: human, plasma, oral; after administration for seven days, depending on the dose (10-80 mg); read-out: mean elimination half-lives
Experimental readout: half-life at 7 days

Reported half-life at 7 days ( COc1ccc2[nH]c([S+]([O-])Cc3ncc(C)c(OC)c3C)nc2n1 (stereo not shown) ) = 5 to 9.5 h
